test: folding stability dG unfold from chymotrypsin proteolysis; higher = more stable
What folding stability dG unfold was measured for each of the following?
Express it in kcal/mol; write the number only.

For the sequence SAGGSAGGSMVKVEVTTTYDPSSNKTTVTTTTTLTEGGGTVLGTKTTTTTTTISPTTPVTSVTSAGGSAGGS [r12_254_JUSTAS] , what folding stability dG unfold is on record?
1.17

Entry SAGGSAGGSAGGMTITVPVEGVEEAIEKAKKEHPNTEIKITLLKPGGEKATTRTVKILGSAGGSAGGSAGGS [r10_741_JUSTAS] has what folding stability dG unfold?
-0.403

Form field: reported folding stability dG unfold of SAGGSAGGSAGGSPPGQEILIQIKIEFTFPIKKQTDGKPQWHPITISFTAAIPIKVDPNSAGGSAGGSAGGS [r4_271_TrROS]
3.59

Record request: folding stability dG unfold value, item SAGGKPVRILVIAGKGIRPLEIPVDEDKTVEAEFKFGDHTIRIRVSPKEKKIEVEAPSNFKIIILEPSAGGS [r16_761_TrMRF]
3.14

Need folding stability dG unfold, item SAGGSAGGSAGVTIPDPGEEELRKALEAGREVRVAFPESGKVVLVEGPGPELGEEPEPAASAGGSAGGSAGG [r11_94_JUSTAS]
0.589

Find the recorded folding stability dG unfold belonging to SAGGKITAFVLVELPDGSVVERTYEFERLDDLLAFLEADPGPKLADLEIIPPEGSDDIIIPLVARVEPSAGG [r13_796_TrMRF] and report it.
2.15

Return reported folding stability dG unfold; argument: SAGNMFMVRITFPMPRYEQKRDPDNGKPKMEPKPHPREITIMVPPDSPQARDLANKLAPPGWKVDVFPMSAG [r5_468_TrROS]
1.43
